target: Lysophosphatidic acid receptor 2 (Homo sapiens); experiment: Antagonist activity at LPA2 receptor (unknown origin)
Sequence (Q9HBW0 whole entry): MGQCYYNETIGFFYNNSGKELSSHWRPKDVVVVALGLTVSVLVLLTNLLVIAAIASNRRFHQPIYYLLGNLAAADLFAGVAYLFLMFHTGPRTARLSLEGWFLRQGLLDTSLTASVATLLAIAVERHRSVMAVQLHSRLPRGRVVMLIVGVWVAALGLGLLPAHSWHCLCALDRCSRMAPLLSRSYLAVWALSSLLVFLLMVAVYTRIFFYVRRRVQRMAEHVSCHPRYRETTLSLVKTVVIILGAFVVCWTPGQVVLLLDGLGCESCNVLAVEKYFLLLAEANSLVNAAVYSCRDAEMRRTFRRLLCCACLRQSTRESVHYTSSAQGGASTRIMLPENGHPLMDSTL
pIC50: −log10 of the molar value.
Attribute: pIC50

Solved cases below.
[[record]]
compound = "Cc1cccc(CN2C(C)CCCC2c2cc3cc(F)ccc3[nH]2)c1 (stereo not drawn)"
property_label = "pIC50"
result = "> 6.30"

[[record]]
compound = "Fc1ccc(CN2CCCCC2c2cc3ccccc3[nH]2)cc1 (stereo not drawn)"
property_label = "pIC50"
result = "> 6.30"


Lysophosphatidic acid receptor 2 (Homo sapiens) data for Cc1cccc(CN2CCCCC2c2cc3ccccc3[nH]2)c1 (stereo not drawn) ; its pIC50: > 6.30
